# System: MDA-N
# assay_procedure: NCI tumour cell line growth inhibition, 48 h
Active and inactive are the calls of the source. Cut-off read from the data, not from the text of the source: active = GI50 up to about 1.1 µM and inactive = higher. Bridge positions count the residues as written; N and C are the ends. Square brackets hold non-standard residues; d marks the D form. Peptide text beside a SMILES is read from it. I, II: the chains in the order shown. * marks the point of attachment. Quinoxaline2carbonyl = O=C(c1cnc2ccccc2n1)*; NMeV = CN[CH](C(=O)O)C(C)C; NMeC = CN[CH](CS)C(=O)O
This listing pairs compounds with measured GI50.

compound	GI50
C1COC(NC(C2CC2)C2CC2)=N1 [RILMENIDINE]	> 100 µM (inactive)
C[C@H](CCC(=O)O)[C@H]1CC[C@H]2[C@@H]3[C@H](O)C[C@@H]4C[C@H](O)CC[C@]4(C)[C@H]3C[C@H](O)[C@]12C	> 100 µM (inactive)
COc1cc(C)c2c(c1C=O)Oc1c(c(C)c(O)c3c1C(O)OC3=O)OC2=O (configuration not stated) [STICTIC ACID]	17.5 µM (inactive)
CCCc1cc(-c2ccc(-c3cc(CCC)c(C=O)[nH]3)s2)[nH]c1C=O	4.34 µM (inactive)
CC[C@H](C)[C@@H]([C@@H](CC(=O)N1CCC[C@H]1[C@H](OC)[C@@H](C)C(=O)NCCc1ccccc1)OC)N(C)C(=O)C(NC(=O)[C@H](C(C)C)N(C)C)C(C)C (some centres not stated)	3.46e-05 µM (active)
C/C(=N/NC(=S)N(C)C)c1ccccc1O	11.9 µM (inactive)
CC1NC(=O)C(NC(=O)c2cnc3ccccc3n2)COC(=O)C(C(C)C)N(C)C(=O)C2CSSCC(C(=O)N(C)C(C(C)C)C(=O)OCC(NC(=O)c3cnc4ccccc4n3)C(=O)NC(C)C(=O)N2C)N(C)C1=O (configuration not stated) (I: Quinoxaline2carbonyl-SA[NMeC][NMeV] / II: Quinoxaline2carbonyl-SA[NMeC][NMeV]; ester I:1-II:C, I:C-II:1; disulfide I:3-II:3; configuration not given here)	< 0.01 µM (active)
CCCN(CCC)C(=S)N/N=C/c1cccc(C)n1	0.621 µM (active)
COc1ccc(CCn2cnc3ccccc32)cc1	> 100 µM (inactive)
CC(C)(C)OC(=O)N1C(C2=COc3ccccc3O2)=COc2cccnc21	1.99 µM (inactive)
C=C(CC[C@@H](C)[C@H]1CC[C@@]2(C)C3=C(CC[C@]12C)[C@@]1(C)CC[C@H](O)[C@@H](C)C1CC3)C(C)C (some centres not stated)	1.17 µM (inactive)
Cc1ccc(C)c2c1n1c(=O)n(C)c(=O)n21	> 100 µM (inactive)
CC(=O)C1C(=O)C(=O)N(c2ccc(Cl)c(Cl)c2)C1=O (configuration not stated)	> 100 µM (inactive)
COc1ccc(-n2c(=O)n(C)c(=O)n2-c2c(C)c(C)c(C)c(C)c2C)cc1	> 100 µM (inactive)
Oc1ccccc1-c1n[nH]c(-c2ccccc2O)n1	> 100 µM (inactive)
CCN(CC)Cc1sc2nc3ccccc3n2c1-c1ccc(OC)cc1	2.61 µM (inactive)
N=C(N)N/N=C\c1c(-c2ccccc2)nc2sccn12	14.1 µM (inactive)
C(=N\c1ccc(-c2cc(-c3ccccc3)nc3ccc4ccccc4c23)cc1)/c1ccccc1	24.4 µM (inactive)
CC1(C)CC(=O)C2=C(C1)c1c(ccc3ccccc13)NC2c1cn(Cc2ccc(Cl)cc2)c2ccccc12 (configuration not stated)	> 100 µM (inactive)
CN1CCC[N+](C)=C1c1ccccc1	> 100 µM (inactive)
Cc1ccc(S(=O)(=O)NNC(=O)Nc2cccc(C(F)(F)F)c2)cc1	> 100 µM (inactive)
CC(=O)On1c(-c2ccccc2-c2nc3ccccc3n2OC(C)=O)nc2ccccc21	21 µM (inactive)
CC(=O)Nc1c(C)cc2c(nc3n2CCC3OC(C)=O)c1[N+](=O)[O-] (configuration not stated)	> 100 µM (inactive)
Cn1c(-c2ccc[se]2)ccc1-c1ccc(C=O)[se]1	6.34 µM (inactive)
C=CC/N=C(\S)Nc1sc2c(c1C(=O)OCC)CC(C)CC2 (configuration not stated)	30.5 µM (inactive)
COc1ccc(NC(=O)C(=O)C(CC2C(=O)NC(=S)NC2=O)C(=O)c2ccc3ccccc3c2)c([N+](=O)[O-])c1 (configuration not stated)	> 100 µM (inactive)
Cc1ccc(C(=O)N(C(C)C)C(C)C)cc1/N=N/N(C)C	> 100 µM (inactive)
O=C1CSC(c2ccccc2O)N1c1ccc2c(c1)Oc1c(Cl)c3c(c(Cl)c1=N2)Oc1cc(N2C(=O)CSC2c2ccccc2O)ccc1N=3 (configuration not stated)	38.4 µM (inactive)
COc1ccc(Nc2[nH]c(C(C)=O)c(N)c2C(=S)Nc2ccccc2)cc1	76.4 µM (inactive)
OCCN(CCO)c1ncnc2[nH]cnc12	> 100 µM (inactive)
CC1=C(C(=O)OC(C)C)C(c2ccccc2[N+](=O)[O-])C(C(=O)OC(CO[N+](=O)[O-])CO[N+](=O)[O-])=C(C)N1 (configuration not stated)	2.79 µM (inactive)
Cn1nnc2c(C(N)=S)ncn2c1=O	> 100 µM (inactive)
NC(=O)C(=O)c1ncn(Cc2ccccc2)c1N	> 100 µM (inactive)
CCOC(=O)Cn1c(=O)c2nc(SC)sc2n(CC)c1=S	> 100 µM (inactive)
Cc1ccc(O)c(C2=NNC(c3cccc(Cl)c3)C2)c1 (configuration not stated)	28.3 µM (inactive)
Cc1nc2ccccc2nc1-c1ccc(/N=[N+](\[O-])c2ccc(-c3nc4ccccc4nc3C)cc2)cc1	> 100 µM (inactive)
CCOC(CNCCC(=O)OC)OCC	> 10 µM (inactive)

###

# Test system: COLO 205
# assay_procedure: NCI tumour cell line growth inhibition, 48 h
Calls of active or inactive are those of the source. No stated cut-off is given here; in the data, active = GI50 up to about 1.1 µM and inactive = higher.
property_label: GI50

molecule	result
CC1=C(C(=O)OC(C)C)C(c2ccccc2[N+](=O)[O-])C(C(=O)OC(CO[N+](=O)[O-])CO[N+](=O)[O-])=C(C)N1 (centres undefined)	5.24 µM (inactive)
COc1cc([C@@H]2c3cc4c(cc3[C@@H](OC(=O)c3cccc(N)c3)C3COC(=O)[C@@H]32)OCO4)cc(OC)c1O (some centres undefined)	11.3 µM (inactive)
C1=CN2C[n+]3ccc4ccccc4c3N=C2c2ccccc21	1.23 µM (inactive)
O=C(Sc1c(-c2ccccc2)c(=O)n(-c2ccccc2)c(=S)n1-c1ccccc1)c1ccco1	> 100 µM (inactive)
COc1ccc(Nc2[nH]c(C(C)=O)c(N)c2C(=S)Nc2ccccc2)cc1	21.9 µM (inactive)
CC1=NOC(=O)/C1=C/c1ccc2c(c1)OCO2	17.7 µM (inactive)
COc1ccc(C2C3CCCC(C3=O)C(c3ccc(OC)cc3)N2N=O)cc1 (centres undefined)	20.1 µM (inactive)
Oc1c(Br)cc(CN(Cc2cc(Br)c(O)c(Br)c2)C2CCCCC2)cc1Br	> 100 µM (inactive)
CCC1c2[nH]c3ccccc3c2C[C@H]2C(=O)NC(CCCCNC(=O)OC(C)(C)C)C(=O)N12 (some centres undefined)	29.9 µM (inactive)
C/C=C(\C)C(=O)O[C@@H]1CC(C)(C)CC2C3=CCC4[C@]56CC[C@](O)(OC5)C(C)(C)C6CC[C@@]4(C)C3(C)CC[C@]21C(=O)O (some centres undefined)	83.9 µM (inactive)
Cn1c(-c2ccc[se]2)ccc1-c1ccc(C=O)[se]1	16.3 µM (inactive)
COc1cccc2c1C(=O)c1c(O)c3c(c(O)c1C2=O)C[C@@](O)(C(C)=O)CC3S(=O)(=O)O (some centres undefined)	> 100 µM (inactive)
CN(C)CCNC(=O)c1cccc2c1nc(-c1ccncc1)c1ccccc12	1.61 µM (inactive)
O=C1C(OC(=O)c2ccccc2)=C(c2ccc(O)cc2)C(=O)C(OC(=O)c2ccccc2)=C1c1ccc(O)cc1	> 100 µM (inactive)
O=C(/C=C/c1c(O)ccc2ccccc12)c1cccc2ccccc12	> 100 µM (inactive)
CCOP(=O)(OCC)C(C(=O)OC)C(=O)C(=O)Nc1c(C)cc(Br)cc1C (centres undefined)	> 100 µM (inactive)
CC(=C(C(N)=O)C(N)=O)C1C=C(c2cccs2)CC(c2ccc(Cl)cc2)=C1O (centres undefined)	42 µM (inactive)
O=C(NCCCCCCNC(=O)c1cccc2ccccc12)Nc1cccc2ccccc12	> 100 µM (inactive)
CC1=C[C@]2(O)C(=O)[C@H](C)C[C@H]3[C@@H](CC[C@@](C)(O)/C=C\2C1=O)C3(C)C	16.7 µM (inactive)

###

# Test system: HOP-62
# assay_procedure: NCI tumour cell line growth inhibition, 48 h
Activity calls are given as the source filed them. Rule as the data show it: active = GI50 up to about 1.1 µM and inactive = higher.
Classes used: 1 for active, -1 for inactive

>>> df
                                   molecule  qualitative_label
0  CCCCOC(=O)C(=O)C(CC(C(=O)Cc1ccccc1)c1ccccc1)C(=O)C=C(C)C (stereo not given)                 -1
1              C/C(=N/NC(=S)N(C)C)c1ccccc1O                 -1
2      COc1ccc2[nH]cc(/C=C(/C)c3ccncc3)c2c1                 -1
3     C1=CN2C[n+]3ccc4ccccc4c3N=C2c2ccccc21                 -1
4      O=S1(=O)NN=C(NCc2ccc(F)cc2)c2ccccc21                 -1
5  CC1(C)Oc2ccc3c(=O)cc(-c4ccc(F)cc4)oc3c2C1C(=O)O (stereo not given)                 -1
6             C/C(=N/Nc1nc(C)cc(O)n1)C(=O)O                 -1
7  CC(=O)O[C@]1(C(C)=O)CC[C@H]2[C@@H]3C[C@H](C)C4=CC(=O)C=C[C@]4(C)[C@@]3(F)[C@@H](O)C[C@@]21C [FLUOROMETHOLONE ACETATE]                 -1
8  CC(=O)NNc1nc(C)c(C(/C=C/c2ccc(NC(C)=O)cc2)=N/NS(=O)(=O)c2ccc(C)cc2)s1                 -1
9           CCCN(CCC)C(=S)N/N=C/c1cccc(C)n1                  1
